All values here come from patent US20210045385A1.

Tested on: pigweed (Amaranthus retroflexus)
experimentDescription: Test A preemergence, visual plant response rating
Format: in vivo
protocolConditions: 125 g ai/ha Preemergence; approx. 10 days
Note to self: use Fulfilled only for Pigweed plant response rating (0 to 100 scale) readings below 30; a reading exactly at 30 still gets Not fulfilled.

# TODO verify Pigweed plant response rating (0 to 100 scale) < 30 strictly for this compound: CON=C(c1cccc(Cl)c1)c1c(O)c(C)nn(C2CC2)c1=O (mixture of isomers) [Compound 33] Fulfilled

Determine whether this compound shows Pigweed plant response rating (0 to 100 scale) lower than 30 (ties excluded): Cc1ccccc1/C(=N/OC(C)C)c1c(O)c(C)nn(C)c1=O [Compound 19] Fulfilled

Is 30 strictly greater than the compound's reported Pigweed plant response rating (0 to 100 scale)? compound: Cc1ccccc1/C(=N\OC(C)C)c1c(O)c(C)nn(C)c1=O [Compound 20] Not fulfilled

Please state whether Pigweed plant response rating (0 to 100 scale) is below 30 for CO/N=C(/c1c(O)c(C)nn(C)c1=O)c1cccc2ccccc12 [Compound 31] Not fulfilled

For this compound, is Pigweed plant response rating (0 to 100 scale) lower than 30? CCO/N=C(\c1ccccc1C)c1c(O)c(C)nn(C)c1=O [Compound 14] Fulfilled

Does this compound meet the criterion Pigweed plant response rating (0 to 100 scale) < 30? CO/N=C(\c1cccc(Cl)c1)c1c(O)c(C)nn(C)c1=O [Compound 10] Fulfilled

Please indicate whether the reported Pigweed plant response rating (0 to 100 scale) of CCO/N=C(/c1cccc(Cl)c1)c1c(O)c(C)nn(C)c1=O [Compound 9] is strictly below 30. Not fulfilled

###

System: wheat (Triticum aestivum)
experimentDescription: Test C postemergence, visual plant response rating
Assay type: in vivo
protocolConditions: Test C, postemergence, 125 g ai/ha
readoutLabel: Wheat plant response rating (0 to 100 scale)

Form: compound = CO/N=C(\c1cc(F)cc(C)c1F)c1c(O)c(C)nn(C)c1=O ; Wheat plant response rating (0 to 100 scale) = 0

Wheat plant response rating (0 to 100 scale) for CO/N=C(/c1c(O)c(C)nn(C)c1=O)c1cccc2cc(Cl)ccc12 is 10

The value of Wheat plant response rating (0 to 100 scale) measured for the compound Cc1nn(C)c(=O)c(/C(=N\OCc2ccccc2)c2cccc(Cl)c2)c1O turned out to be 0

The reported Wheat plant response rating (0 to 100 scale) of the compound CO/N=C(\c1c(O)c(C)nn(C)c1=O)c1cccc2cc(Cl)ccc12 was 0

Wheat plant response rating (0 to 100 scale) recorded for this compound, Cc1nn(C)c(=O)c(C(=NOCC2CC2)c2cc(Cl)cc(Cl)c2Cl)c1O , is 70

For CO/N=C(\c1cc(Cl)cc(Br)c1)c1c(O)c(C)nn(C)c1=O the compound record lists Wheat plant response rating (0 to 100 scale) as 60

The reported Wheat plant response rating (0 to 100 scale) of the compound CCO/N=C(\c1c(O)cnn(C)c1=O)c1ccc(F)c2ccccc12 was 0

For reference, reported Wheat plant response rating (0 to 100 scale) for C#CCO/N=C(/c1c(O)c(Cl)nn(C)c1=O)c1ccc(F)c2ccccc12 stands at 70

Value of Wheat plant response rating (0 to 100 scale) reported for the compound C#CCO/N=C(/c1cccc(/C=C\Cl)c1)c1c(O)c(C)nn(C)c1=O is 50

Wheat plant response rating (0 to 100 scale) reading for CCOc1cccc(C(=NOC)c2c(O)c(C)nn(C)c2=O)c1 : 0

In plain terms, C#CCON=C(c1ccc(Cl)c(Cl)c1)c1c(O)c(C)nn(C)c1=O has a documented Wheat plant response rating (0 to 100 scale) of 80

Measured Wheat plant response rating (0 to 100 scale) of C#CCO/N=C(\c1c(O)c(Cl)nn(C)c1=O)c1ccc(F)c2ccccc12 : 90

Sample CCO/N=C(\c1c(O)c(Cl)nn(C)c1=O)c1ccc(F)c2ccccc12 ; Wheat plant response rating (0 to 100 scale) observed: 0

Value of Wheat plant response rating (0 to 100 scale) reported for the compound C#CCO/N=C(\c1cc(Cl)cc(Cl)c1Cl)c1c(O)c(C)nn(C)c1=O is 0
